biological target: ROR1 (antigen of the KD determination and of the Octet dissociation measurement) (UniProt Q01973 30-403, limits assumed); test: method not stated (conventional procedures)
Sequence (Q01973 30-403 limits assumed): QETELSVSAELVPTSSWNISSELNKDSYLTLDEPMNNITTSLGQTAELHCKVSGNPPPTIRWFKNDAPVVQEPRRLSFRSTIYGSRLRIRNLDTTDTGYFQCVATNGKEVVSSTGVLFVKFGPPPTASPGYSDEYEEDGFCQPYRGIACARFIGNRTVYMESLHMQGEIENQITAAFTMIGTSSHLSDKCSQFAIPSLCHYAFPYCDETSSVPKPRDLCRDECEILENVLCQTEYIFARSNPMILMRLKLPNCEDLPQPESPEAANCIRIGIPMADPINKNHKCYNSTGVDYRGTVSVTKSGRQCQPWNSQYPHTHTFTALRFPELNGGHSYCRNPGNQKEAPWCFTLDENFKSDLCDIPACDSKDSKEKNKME
Give Kd for every item shown.
Provide only the numeric value, understood in nM.

The binder identified as PR001415 (antibody, human IgG1, kappa, V domains shown, fully human IgG1, kappa) VH: EVQLVESGGGVVQPGRSLRLSCAASGFTFSNSGMHWVRQAPGKGLEWVAIMWYDGSNKDYADSVKGRFTISRDTSKNTLYLQMNSLRAEDTAVYYCAREQARSFDLWGRGTLVTVSS VL: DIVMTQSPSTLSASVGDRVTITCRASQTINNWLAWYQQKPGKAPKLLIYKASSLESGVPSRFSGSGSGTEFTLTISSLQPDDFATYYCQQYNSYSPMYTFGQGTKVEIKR registered its Kd at 1.53

The binder identified as PR001369 (antibody, human IgG1, kappa, V domains shown, fully human IgG1, kappa; also called anti-ROR1 1015M3-H10 hIgG1; PR001369(WT)) VH: QVQLVESGGGVVQPGRSLRLSCAASGFTFSNYGIHWVRQAPGKGLEWVAIMWYDGSNTDYADSVKGRFTISRDTSKNTLFLQMNSLRAEDTAVYYCAREQARSFDLWGRGTLVTVSS VL: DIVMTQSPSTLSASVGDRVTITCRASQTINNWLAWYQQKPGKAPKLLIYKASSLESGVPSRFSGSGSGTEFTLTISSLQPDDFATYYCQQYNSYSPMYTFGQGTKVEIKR registered its Kd at 1.69

The binder identified as PR001417 (antibody, V domains shown, fully human IgG1, kappa) VH: QVQLVESGGGVVQPGRSLRLSCAASGFSFSSYAMHWVRQAPGRGLEWVAVIWYDGGDEDYIDSVKGRFTISRDDSKNTLYLQMNSLRAEDTAVYYCAREQARSFDLWGRGTLVTVSS VL: DVVMTQSPSTLSASVGDRVTITCRASQSINSWLAWYQQKPGKAPKLLIYKASSLESGVPSRFSGSGSGTEFTLTISSLQPDDFATYYCQQYNSYSPMYTFGQGTKVEIKR registered its Kd at 14.9

Data credit: patent US20240010721A1
